The values you see were collected from PubChem BioAssay (NCI).

growth: recorded values
- Tested on: SR leukemia
- protocolNotes: NCI-60 one-dose screen, 48 h (100 = growth as untreated, 0 = no growth, -100 = all killed)
- protocolConditions: 10 µM
Compounds without any hit were thinned out: in the full panel of roughly 83,000, 20% have a hit.
Entry rule: numbers only, all in %.

The cases that follow already have their growth on record.
1) C[N+](C)=c1ccc2nc3c(cc(Nc4ccccc4)c4ccccc43)oc-2c1: 22.1
2) CN(C)CCN(Cc1ccccc1)c1ccccc1: 88.1
3) CC1CC(O)C2C3(C)CCCC2(COC3=O)C12CCC1(CCOC1=O)O2 (stereo unspecified): 114
4) CC12CC3CC1C(C(=O)O2)C3C(=O)O (stereo unspecified): 93.1
5) COc1cc(-c2ccc(NC(=O)NC3CC3)c(OC)c2)ccc1NC(=O)NC1CC1: 1.38

Fill in the recorded growth for this compound, with SR leukemia as test system: CCOC(=O)C1=C(C)NC(=O)NC1c1cccs1 (stereo unspecified) 76.5
